- TARGET_OR_SYSTEM: D(1B) dopamine receptor (Homo sapiens, UniProt P21918)
- Sequence (P21918 whole entry): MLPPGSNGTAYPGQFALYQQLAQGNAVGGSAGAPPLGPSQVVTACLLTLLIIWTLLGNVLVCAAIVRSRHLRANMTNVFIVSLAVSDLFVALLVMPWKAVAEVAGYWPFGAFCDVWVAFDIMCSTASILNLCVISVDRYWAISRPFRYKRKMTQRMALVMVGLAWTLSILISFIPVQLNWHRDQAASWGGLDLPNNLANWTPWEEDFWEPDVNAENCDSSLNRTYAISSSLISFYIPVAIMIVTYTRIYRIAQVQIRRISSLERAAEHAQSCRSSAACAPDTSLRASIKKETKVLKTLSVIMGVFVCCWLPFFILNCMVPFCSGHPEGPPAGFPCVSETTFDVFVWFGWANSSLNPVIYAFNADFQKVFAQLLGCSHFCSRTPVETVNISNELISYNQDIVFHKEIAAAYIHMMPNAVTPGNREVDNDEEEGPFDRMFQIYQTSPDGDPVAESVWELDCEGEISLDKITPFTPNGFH
VALUE_KIND: pKi
Numbers only, as −log10 of the molar value.

query: Please supply the value of reported pKi for the item "NCCCCCCn1cc(CCCCN2CCC(c3ccc(-c4cc(C(=O)O)cc5cc(-c6ccc(C(F)(F)F)cc6)ccc45)cc3)CC2)nn1"
result: 5.97

* * *

- TARGET_OR_SYSTEM: UniProtKB P21728
- Sequence (P21728 whole entry): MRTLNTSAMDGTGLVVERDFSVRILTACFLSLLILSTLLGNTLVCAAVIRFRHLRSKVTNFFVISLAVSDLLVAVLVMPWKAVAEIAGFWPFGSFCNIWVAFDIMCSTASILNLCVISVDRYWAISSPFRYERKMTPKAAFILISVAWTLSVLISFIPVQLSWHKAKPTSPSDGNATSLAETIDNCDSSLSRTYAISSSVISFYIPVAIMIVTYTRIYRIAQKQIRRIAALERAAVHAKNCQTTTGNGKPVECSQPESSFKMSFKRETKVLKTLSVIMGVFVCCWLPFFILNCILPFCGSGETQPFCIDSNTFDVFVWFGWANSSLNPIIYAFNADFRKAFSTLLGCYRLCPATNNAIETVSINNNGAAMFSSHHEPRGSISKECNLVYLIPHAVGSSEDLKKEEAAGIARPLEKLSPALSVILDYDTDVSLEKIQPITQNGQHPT
- ASSAY_COMMENT: Displacement of [3H]SCH23390 from human dopamine D1 receptor expressed in HEK293T cell membranes after 90 mins by scintillation counting method
VALUE_KIND: pKi
One number for each entry, as −log10 of the molar value.

query: Please supply the value of reported pKi for the item "NCCCCCCn1cc(CCCCN2CCC(c3ccc(-c4cc(C(=O)O)cc5cc(-c6ccc(C(F)(F)F)cc6)ccc45)cc3)CC2)nn1"
result: 5.12
